experiment: Pharmacokinetics of PL-100 and PL-461 in rats; type: in vivo, Sprague Dawley rats (Rattus norvegicus); conditions: Sprague Dawley, rat, plasma, iv; 5 mg/kg i.v., female rats
PARAMETER: Tmax (min)
Entry rule: numbers only, all in min.

Reported Tmax of COC(=O)N[C@H](C(=O)NCCCC[C@@H](CO)N(CC(C)C)S(=O)(=O)c1ccc(N)cc1)C(c1ccccc1)c1ccccc1 : 6

###

Tested on: 63 HIV isolates with reduced susceptibility to all approved protease inhibitors
Type: cell-based, HIV-1
Settings: 63 diverse, multi-PI-resistant strains
Description: The cross-resistance profile of PL-100 against 63 HIV isolates with reduced susceptibility to all approved protease inhibitors (P is) including atazanavir was thus tested. […] In the cross-resistance profiling studies against the 63 resistant strains mentioned herein, EC95 of PL-100 was determined against each strain. […] The EC95 of PL-100 was determined against each of the 63 resistant strains indicated herein. […]
Entries whose % FC < 10 is below 40% take 1 (yes); entries at or above 40% take 0 (no).

Worked cases, answers included:
COC(=O)N[C@H](C(=O)N[C@@H](Cc1ccccc1)[C@@H](O)CN(Cc1ccc(-c2ccccn2)cc1)NC(=O)[C@@H](NC(=O)OC)C(C)(C)C)C(C)(C)C    1 (yes)
CC(C)CN(C[C@@H](O)[C@H](Cc1ccccc1)NC(=O)O[C@H]1CCOC1)S(=O)(=O)c1ccc(N)cc1    0 (no)

Continue with the next compound.
Query block: Please check: % FC < 10 for CC(C)(C)NC(=O)[C@@H]1CN(Cc2cccnc2)CCN1C[C@@H](O)C[C@@H](Cc1ccccc1)C(=O)N[C@H]1c2ccccc2C[C@H]1O , strictly under 40% or not?
Result block: 0 (no)

###

test: Pharmacokinetics of PL-100 and PL-461 in rats; assay type: in vivo, Sprague Dawley rats (Rattus norvegicus); conditions: Sprague Dawley, rat, plasma, intravenous; 5 mg/kg i.v., female rats; read-out: Clast
PARAMETER: concentration at 6 hr (ng/mL)
Express the result in ng/mL but write the number alone.

Notebook: COC(=O)N[C@H](C(=O)NCCCC[C@@H](CO)N(CC(C)C)S(=O)(=O)c1ccc(N)cc1)C(c1ccccc1)c1ccccc1 [PL-100] , concentration at 6 hr read as 44

###

test system: 63 HIV isolates with reduced susceptibility to all approved protease inhibitors; format: cell-based, HIV-1; settings: 63 diverse, multi-PI-resistant strains; FC in IC50 vs NL-4.3
Label T when Mean FC < 30; otherwise F.

Query block: Hi there! Is Mean FC for Cc1cccc(C)c1OCC(=O)N[C@@H](Cc1ccccc1)[C@@H](O)C[C@H](Cc1ccccc1)NC(=O)[C@H](C(C)C)N1CCCNC1=O below 30, do you know?
Result block: F

Query block: Given the entry COC(=O)N[C@H](C(=O)N[C@@H](Cc1ccccc1)[C@@H](O)CN(Cc1ccc(-c2ccccn2)cc1)NC(=O)[C@@H](NC(=O)OC)C(C)(C)C)C(C)(C)C , would its reported Mean FC be below 30?
Result block: T

Query block: Please indicate whether the reported Mean FC of Cc1c(O)cccc1C(=O)N[C@@H](CSc1ccccc1)[C@H](O)CN1C[C@H]2CCCC[C@H]2C[C@H]1C(=O)NC(C)(C)C is strictly below 30.
Result block: F

Query block: Check if Mean FC falls below 30 for CC(C)(C)NC(=O)[C@@H]1CN(Cc2cccnc2)CCN1C[C@@H](O)C[C@@H](Cc1ccccc1)C(=O)N[C@H]1c2ccccc2C[C@H]1O .
Result block: T
